Tested on: MV4-11
Experiment: Antiproliferative activity against human MV4-11 cells assessed as inhibition of cell growth measured after 72 hrs by CCK8 method
Assay type: functional, cell-based
Details: MV4-11, 72 h
Could you please mark y for values of IC50 below 3 µM and n for values at or above it?

>  <input_smiles>
C[C@@H]1OCC2(CCN(c3nnc(Sc4cccc(Cl)c4Cl)s3)CC2)[C@@H]1N

>  <classification>
n

$$$$

Challenge: Dear reviewer, please state whether "CC1(N)CCN(c2cnc(-c3cccc(Cl)c3Cl)c(N)n2)CC1" has IC50 strictly beneath 3 µM.
Response given: y

Challenge: And "CC1(N)CCN(c2nnc(Sc3cccc(Cl)c3Cl)s2)CC1" ?
Response given: y

Challenge: And "CC1(N)CCN(c2nnc(-c3cccc4ccccc34)s2)CC1" ?
Response given: n

---

Molecular target: Tyrosine-protein phosphatase non-receptor type 11 (Homo sapiens, UniProt Q06124, E76K)
Sequence (Q06124 2-593 E76K limits assumed): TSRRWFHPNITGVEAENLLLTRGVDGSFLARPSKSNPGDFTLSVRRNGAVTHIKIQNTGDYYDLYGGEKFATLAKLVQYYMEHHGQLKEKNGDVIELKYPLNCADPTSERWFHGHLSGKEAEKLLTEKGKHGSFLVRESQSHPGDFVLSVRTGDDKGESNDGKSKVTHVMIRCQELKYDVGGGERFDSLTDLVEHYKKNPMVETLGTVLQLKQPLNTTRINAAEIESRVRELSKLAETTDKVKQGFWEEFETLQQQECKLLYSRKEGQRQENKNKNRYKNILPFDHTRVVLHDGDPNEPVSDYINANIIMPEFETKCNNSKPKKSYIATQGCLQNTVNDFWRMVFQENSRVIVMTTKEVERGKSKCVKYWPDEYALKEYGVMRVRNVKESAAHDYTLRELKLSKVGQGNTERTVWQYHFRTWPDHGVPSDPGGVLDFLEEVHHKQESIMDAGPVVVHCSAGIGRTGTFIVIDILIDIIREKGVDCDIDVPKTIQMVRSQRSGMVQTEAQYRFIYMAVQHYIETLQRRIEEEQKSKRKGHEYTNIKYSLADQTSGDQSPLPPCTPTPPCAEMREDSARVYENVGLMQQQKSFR
Assay: Inhibition of full length recombinant human SHP2 E76K mutant (1 to 525 residues) using DIPMUP as substrate preincubated for 30 mins followed by substrate addition and measured after 30 mins by fluorescence based analysis
measured_parameter: IC50 (µM)
Report the figure in µM without appending any unit label.

Challenge: Which IC50 value is on record for "C[C@@H]1OCC2(CCN(c3nnc(Sc4cccc(Cl)c4Cl)s3)CC2)[C@@H]1N" ?
Response given: 6.88

---

Molecular target: Tyrosine-protein phosphatase non-receptor type 6 (Homo sapiens, UniProt P29350)
Sequence (P29350 whole entry, the tested form may be a part): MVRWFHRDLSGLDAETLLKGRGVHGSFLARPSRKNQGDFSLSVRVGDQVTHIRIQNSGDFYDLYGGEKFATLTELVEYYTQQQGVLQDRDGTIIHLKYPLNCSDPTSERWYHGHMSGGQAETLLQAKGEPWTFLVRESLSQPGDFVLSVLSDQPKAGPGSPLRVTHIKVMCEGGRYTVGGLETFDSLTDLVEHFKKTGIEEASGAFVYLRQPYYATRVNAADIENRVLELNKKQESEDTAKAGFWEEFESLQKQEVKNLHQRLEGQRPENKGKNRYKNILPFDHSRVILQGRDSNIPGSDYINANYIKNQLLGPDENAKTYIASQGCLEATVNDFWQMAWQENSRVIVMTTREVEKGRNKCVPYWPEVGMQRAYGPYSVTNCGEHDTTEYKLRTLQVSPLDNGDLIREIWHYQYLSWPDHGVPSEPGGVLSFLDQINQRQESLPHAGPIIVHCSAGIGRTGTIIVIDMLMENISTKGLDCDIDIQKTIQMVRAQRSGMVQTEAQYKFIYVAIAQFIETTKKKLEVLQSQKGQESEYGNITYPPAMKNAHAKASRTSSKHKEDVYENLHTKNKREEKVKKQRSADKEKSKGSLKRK
Assay: Inhibition of full length recombinant human SHP1 (1 to 570 residues) using DIPMUP as substrate preincubated for 30 mins followed by substrate addition and measured after 30 mins by fluorescence based analysis
pIC50: −log10 of the molar value.
measured_parameter: pIC50

Here are 4 compounds together with their reported answers.
>  <input_smiles>
CC1(N)CCN(c2nnc(Sc3ccc4ccccc4c3)s2)CC1

>  <pIC50>
< 4.30

$$$$
>  <input_smiles>
CC1(N)CCN(c2nnc(Sc3cccc(Cl)c3Cl)s2)CC1

>  <pIC50>
< 4.30

$$$$
>  <input_smiles>
CC1(N)CCN(c2nnc(-c3cccc4ccccc34)s2)CC1

>  <pIC50>
< 4.30

$$$$
>  <input_smiles>
C[C@@H]1OCC2(CCN(c3nnc(Sc4cccc(Cl)c4Cl)s3)CC2)[C@@H]1N

>  <pIC50>
< 4.30

$$$$

Challenge: Which pIC50 value is on record for "CC1(N)CCN(c2cnc(-c3cccc(Cl)c3Cl)c(N)n2)CC1" ?
Response given: < 4.30

---

Tested on: A549
Experiment: Antiproliferative activity against human A549 cells assessed as inhibition of cell growth measured after 72 hrs by CCK8 method
Format: functional, cell-based
Details: A549, 72 h
measured_parameter: pIC50
# pIC50 is unitless: minus log10 of the molar concentration; print number only

Here are 3 molecules together with their reported answers.
>  <input_smiles>
C[C@@H]1OCC2(CCN(c3nnc(Sc4cccc(Cl)c4Cl)s3)CC2)[C@@H]1N

>  <pIC50>
4.92

$$$$
>  <input_smiles>
CC1(N)CCN(c2nnc(Sc3cccc(Cl)c3Cl)s2)CC1

>  <pIC50>
5.14

$$$$
>  <input_smiles>
CC1(N)CCN(c2nnc(-c3cccc4ccccc34)s2)CC1

>  <pIC50>
4.72

$$$$

Shift focus to the following entry.
Challenge: Identify the measured pIC50 of "CC1(N)CCN(c2nnc(Sc3ccc4ccccc4c3)s2)CC1" for A549.
Response given: 4.86
